src = patent US12391679B2

tested on: LPS triggered IL-10 secretion in monocytes; assay: Monocytes assay: LPS-triggered IL-10 (ELISA); type: cell-based, human; conditions: Homo sapiens, Monocyte, LPS-triggered IL-10 induction, median maximal fold change vs LPS only, read-out: IL-10 FCmax median
measurement.name: maximal fold induction

Batch request: maximal fold induction for each of the following molecules.
1. COc1cc(-c2cnc3cc(C(C)(C)C(C)O)ccn23)cc(OC(F)F)c1C(=O)NC1CC1 (stereo not shown) [Cpd 172]
2. COc1cn2c(-c3cc(OC)c(C(=O)NC4CC4)c(OC(F)F)c3)cnc2cc1C(C)(C)C#N [Cpd 200]
3. COc1cc(-c2cnc3cc(C(C)(C)C#N)ccn23)cc(OC(F)F)c1C(=O)N[C@@H]1C[C@@H]1F [Cpd 79]
4. COc1cc(-c2cnc3cc(C(C)(C)O)ccn23)cc(OC(F)F)c1C(=O)N[C@@H]1C[C@@H]1F [Cpd 211]

1: < 1.5; 2: < 1.5; 3: 1.5 to 4.5; 4: 1.5 to 4.5

----------
target: SIK3 (Homo sapiens, UniProt Q9Y2K2); construct: purchased SignalChem S12-11G-100; test: ADP-Glo kinase assay, SIK3; format: biochemical
Sequence (Q9Y2K2 59-365 limits assumed): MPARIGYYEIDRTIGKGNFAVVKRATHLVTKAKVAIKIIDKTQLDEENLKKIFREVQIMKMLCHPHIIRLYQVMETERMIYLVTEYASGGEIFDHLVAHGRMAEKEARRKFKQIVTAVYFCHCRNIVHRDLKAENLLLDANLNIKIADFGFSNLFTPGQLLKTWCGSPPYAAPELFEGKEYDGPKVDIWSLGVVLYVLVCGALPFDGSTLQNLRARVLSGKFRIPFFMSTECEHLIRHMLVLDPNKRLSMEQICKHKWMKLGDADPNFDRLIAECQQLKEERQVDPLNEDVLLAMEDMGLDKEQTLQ
pIC50: −log10 of the molar value.
measurement.name: pIC50

Consider the worked cases shown below.
{"columns": ["molecule", "experimental.target", "reported.value"],
 "data": [
  ["COC(=O)C(C)(C#N)c1ccn2c(-c3cc(OC)c(C(=O)NC4CC4)c(OC(F)F)c3)cnc2c1 (stereo not shown)", "SIK3 (Homo sapiens, UniProt Q9Y2K2)", "< 6.30"],
  ["COc1cc(-c2cnn3cc(C4(NCC#N)CCC4)ccc23)cc(OC(F)F)c1C(=O)N[C@@H]1C[C@@H]1F", "SIK3 (Homo sapiens, UniProt Q9Y2K2)", "7.00 to 8.00"],
  ["COc1cc(-c2cnc3cc(C(C)(C)C#N)ccn23)cc(OC(F)F)c1C(=O)NC(C)C", "SIK3 (Homo sapiens, UniProt Q9Y2K2)", "7.00 to 8.00"]
]}

Batch request: pIC50 for each of the following molecules.
1. COc1cc(-c2cnc3cc(C4CCOCC4)ccn23)cc(OC(F)F)c1C(=O)NC1CC1
2. COc1cc(-c2cnc3cc(C4(C#N)CC4)ccn23)cc(OC(F)F)c1C(=O)NC1CC1
3. COCCOc1cc(-c2cnn3cc(C(C)(C)C#N)ccc23)cc(OC)c1C(=O)NC1CC1
4. COc1cc(-c2cnc3cc(C4(C#N)CCC4)ccn23)cc(OC(F)F)c1C(=O)NC1CC1
5. COc1cc(-c2cnc3cc(C(C)(C)O)ncn23)cc(OC(F)F)c1C(=O)NC1CC1
6. COc1cc(-c2cnc3cc(C4(C)CN(C)CCO4)ccn23)cc(OC(F)F)c1C(=O)NCC(F)(F)F (stereo not shown)

1. 8.00 to 11.00
2. 8.00 to 11.00
3. 6.30 to 7.00
4. 8.00 to 11.00
5. 6.30 to 7.00
6. 6.30 to 7.00

Batch request: pIC50 for each of the following molecules.
1. COc1cc(-c2cnc3cc(C(C)(C)C#N)ccn23)cc(OC(F)F)c1C(=O)N1CCC1CO (stereo not shown)
2. COc1cc(-c2cnc3cc(C(C)(O)Cn4cccn4)ccn23)cc(OC(F)F)c1C(=O)NC1CC1 (stereo not shown)
3. COc1cc(-c2cnn3cc(C(C)(C)COC4COC4)ccc23)cc(OC(F)F)c1C(=O)N[C@@H]1C[C@@H]1F
4. COc1cc(-c2cnc3cc(C4CCCN(C)C4)ccn23)cc(OC(F)F)c1C(=O)NC1CC1 (stereo not shown)
5. CCNC(=O)C(C)(C)c1ccc2c(-c3cc(OC)c(C(=O)NC4CC4)c(OC(F)F)c3)cnn2c1
6. COCC(C)(C)c1ccc2c(-c3cc(OC)c(C(=O)NC4CC4)c(OC(F)F)c3)cnn2c1

1. 6.30 to 7.00
2. 7.00 to 8.00
3. 7.00 to 8.00
4. 8.00 to 11.00
5. 7.00 to 8.00
6. 7.00 to 8.00

Batch request: pIC50 for each of the following molecules.
1. CCN(CC)C(C)c1ccn2c(-c3cc(OC)c(C(=O)NC4CC4)c(OC(F)F)c3)cnc2c1 (stereo not shown)
2. COc1cc(-c2cnc3cc(C(C)(O)CN4CCCCC4)ccn23)cc(OC(F)F)c1C(=O)NC1CC1 (stereo not shown)
3. COC(=O)C(F)(F)c1ccn2c(-c3cc(OC)c(C(=O)NC4CC4)c(OC(F)F)c3)cnc2c1
4. COc1cc(-c2cnc3cc(C(C)(O)CN4CCOCC4)ccn23)cc(OC(F)F)c1C(=O)NC1CC1 (stereo not shown)
5. COc1cc(-c2cnc3cc(C(C)(C)C#N)cnn23)cc(OC(F)F)c1C(=O)N[C@@H]1C[C@@H]1F
6. COc1cc(-c2cnn3cc(C4(C(=O)N5CCOCC5)CCC4)ccc23)cc(OC(F)F)c1C(=O)N[C@@H]1C[C@@H]1F
7. COc1cc(-c2cnc3cc(C(C)(C)C4CCO4)ccn23)cc(OC(F)F)c1C(=O)NC1CC1 (stereo not shown)
8. COc1cc(-c2cnc3cc(C4CCCN4C)ccn23)cc(OC(F)F)c1C(=O)NC1CC1 (stereo not shown)

["7.00 to 8.00", "7.00 to 8.00", "8.00 to 11.00", "7.00 to 8.00", "8.00 to 11.00", "6.30 to 7.00", "7.00 to 8.00", "7.00 to 8.00"]
